Just for reference, paper PMC10639087 is where these values come from.

biological target: LSM12 (like-Sm protein 12) (Homo sapiens, UniProt Q3MHD2)
Sequence (Q3MHD2 whole entry): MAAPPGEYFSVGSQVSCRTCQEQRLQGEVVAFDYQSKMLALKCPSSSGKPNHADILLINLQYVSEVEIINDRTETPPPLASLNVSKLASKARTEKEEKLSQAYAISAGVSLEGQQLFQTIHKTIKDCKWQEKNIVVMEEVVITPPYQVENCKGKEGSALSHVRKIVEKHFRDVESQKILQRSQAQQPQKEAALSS
pKd: −log10 of the molar value.
measured metric: pKd

| compound | numeric result |
| --- | --- |
| NC(=O)c1ccc[n+]([C@@H]2O[C@H](COP(=O)(O)OP(=O)(O)OC[C@H]3O[C@@H](n4cnc5c(N)ncnc54)[C@H](OP(=O)(O)O)[C@@H]3O)[C@@H](O)[C@H]2O)c1 | 6.90 |
| Nc1ncnc2c1ncn2[C@@H]1O[C@H](COP(=O)(O)OP(=O)(O)OC[C@H]2O[C@@H]([n+]3cccc(C(=O)O)c3)[C@H](O)[C@@H]2O)[C@@H](O)[C@H]1OP(=O)(O)O | 8.69 |
